- Test: Inhibition of sodium channel (unknown origin) assessed as reduction in Na+ flux
- Set-up: species or system Homo sapiens
Recorded Metric: IC50

Suppose we examine the compound CCCCCC[C@@H]1CCc2cc([C@H]3CC[C@](N)(CO)C3)ccc2C1 [BMS-986104] ; what IC50 value has been reported?
> 80 µM

###

- Test: Half life in monkey liver microsomes
- Assay type: ADME, Macaca mulatta, Microsome
- Condition Description: rhesus monkey
Recorded Metric: half-life (h)
Hi! Could you send only the number? It should be in h, unit omitted.

Suppose we examine the compound CCCCCC[C@@H]1CCc2cc([C@H]3CC[C@](N)(CO)C3)ccc2C1 [BMS-986104] ; what half-life value has been reported?
2

###

- Test: Half life in rat liver microsomes
- Type: ADME, Microsome
Recorded Metric: half-life (h)
Hi! Could you send only the number? It should be in h, unit omitted.

Suppose we examine the compound CCCCCC[C@@H]1CCc2cc([C@H]3CC[C@](N)(CO)C3)ccc2C1 [BMS-986104] ; what half-life value has been reported?
2

###

- Test: Half life in mouse
- Type: ADME, organism-based
- Condition Description: in vivo
Recorded Metric: half-life (h)
Hi! Could you send only the number? It should be in h, unit omitted.

Suppose we examine the compound CCCCCC[C@@H]1CCc2cc([C@H]3CC[C@](N)(CO)C3)ccc2C1 [BMS-986104] ; what half-life value has been reported?
98

###

- Tested Target: Cytochrome P450 2D6 (Homo sapiens, UniProt P10635)
- Sequence (P10635 whole entry): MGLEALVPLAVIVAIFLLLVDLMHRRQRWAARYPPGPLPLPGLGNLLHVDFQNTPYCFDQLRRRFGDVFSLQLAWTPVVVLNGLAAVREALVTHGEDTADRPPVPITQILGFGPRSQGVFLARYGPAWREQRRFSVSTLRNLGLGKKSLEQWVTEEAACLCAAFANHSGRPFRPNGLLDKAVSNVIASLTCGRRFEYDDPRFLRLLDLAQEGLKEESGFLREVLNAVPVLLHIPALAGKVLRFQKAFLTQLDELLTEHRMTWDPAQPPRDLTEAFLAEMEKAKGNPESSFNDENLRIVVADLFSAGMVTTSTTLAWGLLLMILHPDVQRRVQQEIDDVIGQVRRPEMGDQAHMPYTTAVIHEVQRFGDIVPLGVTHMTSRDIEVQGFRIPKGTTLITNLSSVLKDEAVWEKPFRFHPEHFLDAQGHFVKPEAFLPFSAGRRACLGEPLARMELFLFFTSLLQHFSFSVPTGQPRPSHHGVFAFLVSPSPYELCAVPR
Recorded Metric: IC50

Suppose we examine the molecule CCCCCC[C@@H]1CCc2cc([C@H]3CC[C@](N)(CO)C3)ccc2C1 [BMS-986104] ; what IC50 value has been reported?
> 20 µM

###

- Tested Target: UniProtKB Q99500
- Test: Antagonist activity at human S1P3 expressed in EDG3-Ga15-bla HEK293T cells incubated for 45 mins by scintillation counting based [35S]GTP-gamma-S binding assay relative to control
pIC50: −log10 of the molar value.
Recorded Metric: pIC50

Query Smiles	pIC50
CCCCCC[C@H]1CCc2cc([C@H]3CC[C@](N)(COP(=O)(O)O)C3)ccc2C1	< 6.00

Turning now to a further compound:
Suppose we examine the compound CCCCCC[C@@H]1CCc2cc([C@H]3CC[C@](N)(COP(=O)(O)O)C3)ccc2C1 ; what pIC50 value has been reported?
< 6.00

###

Catalogue of pEC50 values
- Tested Target: Sphingosine 1-phosphate receptor 3 (Homo sapiens)
- Sequence (Q99500 whole entry): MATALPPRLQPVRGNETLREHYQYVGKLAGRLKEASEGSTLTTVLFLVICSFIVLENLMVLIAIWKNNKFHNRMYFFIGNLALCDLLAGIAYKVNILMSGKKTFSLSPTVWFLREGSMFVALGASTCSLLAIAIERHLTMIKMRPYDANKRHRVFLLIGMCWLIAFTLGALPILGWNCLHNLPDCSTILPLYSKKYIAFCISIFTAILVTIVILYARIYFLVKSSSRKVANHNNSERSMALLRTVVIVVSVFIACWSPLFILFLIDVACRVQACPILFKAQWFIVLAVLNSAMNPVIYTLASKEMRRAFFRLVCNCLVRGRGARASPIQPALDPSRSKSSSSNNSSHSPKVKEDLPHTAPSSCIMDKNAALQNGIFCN
- Test: Agonist activity at human S1P3 expressed in EDG3-Ga15-bla HEK293T cells incubated for 45 mins by scintillation counting based [35S]GTP-gamma-S binding assay relative to control
pEC50: −log10 of the molar value.

Query Smiles	pEC50
CCCCCC[C@H]1CCc2cc([C@H]3CC[C@](N)(COP(=O)(O)O)C3)ccc2C1	< 6.00

Suppose we examine the compound CCCCCC[C@@H]1CCc2cc([C@H]3CC[C@](N)(COP(=O)(O)O)C3)ccc2C1 ; what pEC50 value has been reported?
< 6.00

###

- Tested Target: Cytochrome P450 2C19 (Homo sapiens)
- Sequence (P33261 whole entry): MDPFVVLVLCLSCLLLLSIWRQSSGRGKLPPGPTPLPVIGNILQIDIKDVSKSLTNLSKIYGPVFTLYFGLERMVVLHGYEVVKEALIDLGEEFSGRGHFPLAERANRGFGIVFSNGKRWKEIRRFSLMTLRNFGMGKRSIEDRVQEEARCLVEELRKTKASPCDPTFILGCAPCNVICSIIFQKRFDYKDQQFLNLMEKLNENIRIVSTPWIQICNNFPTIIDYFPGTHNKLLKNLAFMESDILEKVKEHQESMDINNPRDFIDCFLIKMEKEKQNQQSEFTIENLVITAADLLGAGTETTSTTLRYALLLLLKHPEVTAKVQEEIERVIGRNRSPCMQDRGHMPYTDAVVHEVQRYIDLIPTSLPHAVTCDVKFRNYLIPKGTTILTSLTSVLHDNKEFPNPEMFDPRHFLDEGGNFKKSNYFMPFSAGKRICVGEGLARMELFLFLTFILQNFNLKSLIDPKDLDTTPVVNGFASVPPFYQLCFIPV
pIC50: −log10 of the molar value.
Recorded Metric: pIC50

Give recorded pIC50 with Cytochrome P450 2C19 (Homo sapiens) for the following molecule: CCCCCC[C@@H]1CCc2cc([C@H]3CC[C@](N)(CO)C3)ccc2C1
< 4.70

###

- Tested Target: hERG (KCNH2) (Homo sapiens, UniProt Q12809)
- Sequence (Q12809 whole entry): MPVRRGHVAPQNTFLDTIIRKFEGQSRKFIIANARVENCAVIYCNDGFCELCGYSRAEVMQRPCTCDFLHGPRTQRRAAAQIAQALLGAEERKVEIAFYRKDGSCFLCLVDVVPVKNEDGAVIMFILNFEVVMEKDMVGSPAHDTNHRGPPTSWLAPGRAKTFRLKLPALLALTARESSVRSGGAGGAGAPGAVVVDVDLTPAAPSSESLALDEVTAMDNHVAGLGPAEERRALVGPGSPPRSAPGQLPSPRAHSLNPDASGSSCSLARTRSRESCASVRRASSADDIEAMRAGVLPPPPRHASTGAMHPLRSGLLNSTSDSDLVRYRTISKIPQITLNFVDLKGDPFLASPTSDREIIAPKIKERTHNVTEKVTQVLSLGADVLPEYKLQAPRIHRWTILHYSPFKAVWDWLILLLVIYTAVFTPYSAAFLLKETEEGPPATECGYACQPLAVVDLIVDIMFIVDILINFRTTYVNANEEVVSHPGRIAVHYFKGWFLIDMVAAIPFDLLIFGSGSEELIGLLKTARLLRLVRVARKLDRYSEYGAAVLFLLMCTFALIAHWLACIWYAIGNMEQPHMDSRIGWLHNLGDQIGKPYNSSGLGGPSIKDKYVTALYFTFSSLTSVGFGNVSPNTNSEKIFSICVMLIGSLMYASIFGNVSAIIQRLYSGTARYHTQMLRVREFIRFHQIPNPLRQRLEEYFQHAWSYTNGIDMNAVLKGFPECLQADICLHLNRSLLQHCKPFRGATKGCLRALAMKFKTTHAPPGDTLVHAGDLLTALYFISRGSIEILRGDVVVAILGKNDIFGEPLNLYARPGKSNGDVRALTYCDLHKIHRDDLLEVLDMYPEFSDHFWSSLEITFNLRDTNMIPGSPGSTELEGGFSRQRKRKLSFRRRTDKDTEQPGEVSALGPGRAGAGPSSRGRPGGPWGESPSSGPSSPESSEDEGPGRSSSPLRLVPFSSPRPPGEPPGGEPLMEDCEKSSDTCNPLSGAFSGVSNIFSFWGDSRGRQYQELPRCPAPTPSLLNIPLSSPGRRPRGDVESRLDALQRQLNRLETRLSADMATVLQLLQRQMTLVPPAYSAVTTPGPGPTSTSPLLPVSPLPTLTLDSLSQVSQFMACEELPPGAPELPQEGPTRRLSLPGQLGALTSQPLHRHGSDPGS
- Test: Inhibition of human ERG expressed in HEK293 cells assessed as inhibition of peak tail current at 0.3 uM by patch clamp analysis
- Type: cell-based
- Condition Description: HEK293 cells expressing human ERG
Recorded Metric: inhibition at 0.3 µM (%)
Hi! Could you send only the number? It should be in %, unit omitted.

Suppose we examine the molecule CCCCCC[C@@H]1CCc2cc([C@H]3CC[C@](N)(CO)C3)ccc2C1 ; what inhibition at 0.3 µM value has been reported?
36
